- Measurement Description: NCI Yeast Anticancer Drug Screen. Data for the wt2 strain (AID 169);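 note: 0% = growth of vehicle-treated yeast cultures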
- Condition Details: S. cerevisiae wt2 strain growth inhibition; at 33.0 µM; active compounds read high
- Method: Growth inhibition of yeast strains with defined genetic alterations is measured as a screen for potential anti-cancer activity. Selected strains with alterations in DNA damage repair or cell cycle control were exposed to compounds and growth inhibition was measured relative to vehicle treated controls. The strain used in this assay is wt2
The panel holds about 79,000 compounds, 15% with a hit somewhere; the sample as a whole holds those more often.
Reported Endpoint: growth inhibition (%)
Provide the reading as a plain figure in %.

>  <Compound>
COC(=O)C1=C(C(=O)OC)C2(C)C=CC1O2 (configuration not stated)

>  <Reported Endpoint>
growth inhibition

>  <Measurement Unit>
%

>  <Value Reported>
91

$$$$
>  <Compound>
C#CCCCc1ccccc1

>  <Reported Endpoint>
growth inhibition

>  <Measurement Unit>
%

>  <Value Reported>
-31

$$$$

Exercise: May I ask what growth inhibition has been recorded for COc1ccc2sc3cccc(NCCN(C)C)c3c(=O)c2c1 ?
Solution: -1

Exercise: Same for CCOC(=O)C(NC(=O)c1ccccc1)(N1CCN(c2cc3c(cc2F)c(=O)c(C(=O)O)cn3C2CC2)CC1)C(F)(F)F (configuration not stated)
Solution: -2

Exercise: Likewise for O=C1C=CC(=Nc2ccc3c(c2)Cc2cc(NC(=O)C(F)(F)F)ccc2-3)O1 ?
Solution: 26

Exercise: Ok, now Cc1ccc(CSC(N)=Nc2ccccc2)cc1C
Solution: -5

Exercise: Please answer likewise for O=C(N=Nc1cc(Cl)ccc1Cl)NNc1cc(Cl)ccc1Cl
Solution: -1
